B1: LINE1-mini (parent)
chain: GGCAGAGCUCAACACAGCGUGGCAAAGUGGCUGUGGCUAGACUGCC

- Variants of: B1
- assay protocol: self-cleavage, relative activity (ratio to wild type); higher = more cleavage; in vitro, sequencing; the parent is a self-cleaving ribozyme
Please mark label 1 if the recorded self-cleavage is equal to or greater than 0.1, and label 0 if it falls below.

Previously resolved entries follow.
A14C G29U = label 1
A14C G22U = label 0
C3G A14G = label 1
C37U A39G = label 0
G27A C42A = label 1

Lab note: next variant to report on.
Exam item: For this variant, is measured self-cleavage 0.1 or higher? U9A G21C
Marked response: label 0
